molecular target: 72 kDa type IV collagenase (Homo sapiens) (UniProt P08253); assay: Inhibition of MMP-2 (matrix metalloprotease) at 1 uM
Sequence (P08253 110-660 limits assumed): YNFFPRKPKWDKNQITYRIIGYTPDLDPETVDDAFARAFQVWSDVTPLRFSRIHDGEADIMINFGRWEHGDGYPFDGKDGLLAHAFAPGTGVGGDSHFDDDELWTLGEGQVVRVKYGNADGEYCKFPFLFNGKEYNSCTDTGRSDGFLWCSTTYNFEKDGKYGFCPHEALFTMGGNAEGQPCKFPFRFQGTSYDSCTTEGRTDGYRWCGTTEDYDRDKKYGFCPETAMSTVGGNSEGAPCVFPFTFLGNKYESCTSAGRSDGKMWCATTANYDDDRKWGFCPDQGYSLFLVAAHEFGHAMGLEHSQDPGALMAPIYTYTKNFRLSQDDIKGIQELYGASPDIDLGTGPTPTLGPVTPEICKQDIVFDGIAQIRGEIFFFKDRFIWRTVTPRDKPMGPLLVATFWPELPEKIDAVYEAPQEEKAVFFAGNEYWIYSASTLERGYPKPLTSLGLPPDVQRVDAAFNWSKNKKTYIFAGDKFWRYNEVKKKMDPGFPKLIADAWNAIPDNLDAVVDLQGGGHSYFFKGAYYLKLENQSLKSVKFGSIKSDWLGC
Readout name: inhibition (%)
Write the answer as a number in %, unit excluded.

Form: compound = CC(C)(C)[C@@H]1NC(=O)[C@@H](CN(O)C=O)CCCCCCCCCCCCCCNC1=O ; inhibition = 0

Form: compound = CC(=O)NCCCC[C@@H]1NC(=O)[C@@H](CN(O)C=O)CCCCCCCCCNC1=O ; inhibition = 17

Form: compound = CCCC[C@H](CN(O)C=O)C(=O)N[C@@H](CCCCN)C(=O)Nc1ccccc1 ; inhibition = 34

Form: compound = CC(C)(C)[C@@H]1NC(=O)[C@@H](CN(O)C=O)CCCCCCCCCNC1=O ; inhibition = 4

Form: compound = CCCCCCNC(=O)[C@H](CCCCN)NC(=O)[C@H](CCCCC)CN(O)C=O ; inhibition = 73

Form: compound = CC(C)(C)[C@@H]1NC(=O)[C@@H](CN(O)C=O)CCCCCCCCNC1=O ; inhibition = 10

Form: compound = NCCCC[C@@H]1NC(=O)[C@@H](CN(O)C=O)CCCCCCCCCCCCCCNC1=O ; inhibition = 6

Source: ChEMBL document CHEMBL1138767
